target: UniProt P54762; assay: KINOMEscan competition binding; conditions: compound 10.0 µM
Sequence (P54762 whole entry, looked up): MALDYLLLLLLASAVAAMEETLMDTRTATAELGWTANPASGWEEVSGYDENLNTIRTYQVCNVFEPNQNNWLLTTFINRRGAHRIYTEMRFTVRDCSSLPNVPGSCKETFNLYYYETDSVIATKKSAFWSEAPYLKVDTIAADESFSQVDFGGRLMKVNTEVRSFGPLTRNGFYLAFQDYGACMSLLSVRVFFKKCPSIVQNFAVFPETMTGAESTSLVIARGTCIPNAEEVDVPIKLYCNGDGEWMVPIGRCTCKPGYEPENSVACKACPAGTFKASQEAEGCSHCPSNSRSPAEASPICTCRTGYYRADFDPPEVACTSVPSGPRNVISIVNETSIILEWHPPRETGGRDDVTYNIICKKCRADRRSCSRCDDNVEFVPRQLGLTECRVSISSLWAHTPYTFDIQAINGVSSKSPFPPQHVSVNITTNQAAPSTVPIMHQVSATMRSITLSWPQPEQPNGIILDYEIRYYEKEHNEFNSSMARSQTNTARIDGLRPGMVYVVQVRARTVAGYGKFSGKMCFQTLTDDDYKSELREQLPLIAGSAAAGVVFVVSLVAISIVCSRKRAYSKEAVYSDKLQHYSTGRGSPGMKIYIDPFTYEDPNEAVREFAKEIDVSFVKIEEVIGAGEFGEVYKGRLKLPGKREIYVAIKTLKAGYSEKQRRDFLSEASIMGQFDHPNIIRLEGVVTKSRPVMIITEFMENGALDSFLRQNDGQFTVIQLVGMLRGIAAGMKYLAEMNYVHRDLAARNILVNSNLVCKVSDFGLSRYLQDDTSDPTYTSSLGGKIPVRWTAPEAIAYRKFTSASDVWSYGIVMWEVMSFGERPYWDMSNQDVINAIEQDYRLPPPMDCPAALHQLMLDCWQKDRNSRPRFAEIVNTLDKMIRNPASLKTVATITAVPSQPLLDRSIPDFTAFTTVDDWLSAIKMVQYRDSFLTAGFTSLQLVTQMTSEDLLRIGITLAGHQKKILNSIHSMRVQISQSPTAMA
Measurement type: kinase still bound, per cent of control (%)

>>> print(df.to_string())
                               input_smiles                         measurement_type  unit_descriptor  numeric_value
0  COC(=O)Nc1ccc(-c2nc(N3CCOCC3)c3cnn(C4CCN(C(=O)OC)CC4)c3n2)cc1  kinase still bound, per cent of control                %            100
1  COc1ccc(-c2ccc3c(N4CCOCC4)nc(N4C[C@@H](C)O[C@@H](C)C4)nc3n2)cc1CO  kinase still bound, per cent of control                %            100
2  CCC(=O)N1CCN(c2ccc(-n3c(=O)ccc4cnc5ccc(-c6cnc7ccccc7c6)cc5c43)cc2C(F)(F)F)CC1  kinase still bound, per cent of control                %            100
3  CC(C)n1nc(-c2cc3cc(O)ccc3[nH]2)c2c(N)ncnc21  kinase still bound, per cent of control                %             49
